Origin of values: patent US20240173440A1

Protocol: Pharmacokinetics (biodistribution 1-24 h) in non-tumor bearing mice
Format: in vivo
Condition Summary: female, BALB/c, mouse, spleen, 200 umol, total radioactivity; 1 hour after injection, ^61Cu; read-out: Biodistribution Spleen

{"Molecule": "C[C@@H](O)[C@@H]1NC(=O)[C@H](CCCCN)NC(=O)[C@@H](Cc2c[nH]c3ccccc23)NC(=O)[C@H](Cc2ccc(O)cc2)NC(=O)[C@@H](NC(=O)[C@@H](Cc2ccccc2)NC(=O)CCC(C(=O)O)N2CCN(CC(=O)O)CCN(CC(=O)O)CC2)CSSC[C@@H](C(=O)N[C@H](CO)[C@@H](C)O)NC1=O (single isomer, unassigned) [[^61/^64Cu]Cu-NODAGA-TOC, metal not drawn]", "Result Unit": "%ID/g", "tissue uptake at 1 h": 0.23}

* * *

System: HT-1080.hFAP and HT-1080.wt xenografts
Protocol: Quantitative biodistribution in HT-1080.hFAP and HT-1080.wt xenografted mice
Format: in vivo
Condition Summary: 1 h p.i., HT-1080.hFAP and HT-1080.wt xenografts
Quick reference for Biodistribution Pancreas among some compounds
Value Kind: Biodistribution Pancreas (% IA/g)

{"Compound": "N#C[C@@H]1CC(F)(F)CN1C(=O)CNC(=O)c1ccnc2ccc(NC(=O)CCC(=O)NCCNC(=O)CC[C@H](C(=O)O)N3CCN4CCN(CC3)CC(=O)[O][61Cu][O]C(=O)C4)cc12 [[^61Cu]Cu-NODAGA-F1]", "Target System": "HT-1080.hFAP and HT-1080.wt xenografts", "Number": 2.5}
{"Compound": "CN(CCCN1CCN(C(=O)CCC(C(=O)O)N2CCN3CCN(CC2)CC(=O)[O][61Cu][O]C(=O)C3)CC1)c1ccc2nccc(C(=O)NCC(=O)N3CC(F)(F)C[C@H]3C#N)c2c1 (some centres unmarked) [[^61Cu]Cu-NODAGA-FAPI-46]", "Target System": "HT-1080.hFAP and HT-1080.wt xenografts", "Number": 2.0}
{"Compound": "CN(C(=O)CCC(=O)N1CCN(C(=O)CC[C@H](C(=O)O)N2CCN3CCN(CC2)CC(=O)[O][61Cu][O]C(=O)C3)CC1)c1ccc2nccc(C(=O)NCC(=O)N3CC(F)(F)C[C@H]3C#N)c2c1 [[^61Cu]Cu-NODAGA-F4]", "Target System": "HT-1080.hFAP and HT-1080.wt xenografts", "Number": 1.1}
{"Compound": "N#C[C@@H]1CC(F)(F)CN1C(=O)CNC(=O)c1ccnc2ccc(NC(=O)CCC(=O)N3CCN(C(=O)CC[C@H](C(=O)O)N4CCN5CCN(CC4)CC(=O)[O][61Cu][O]C(=O)C5)CC3)cc12 [[^61Cu]Cu-NODAGA-F3]", "Target System": "HT-1080.hFAP and HT-1080.wt xenografts", "Number": 1.6}
{"Compound": "CN(C(=O)CCC(=O)NCCNC(=O)CC[C@H](C(=O)O)N1CCN2CCN(CC1)CC(=O)[O][61Cu][O]C(=O)C2)c1ccc2nccc(C(=O)NCC(=O)N3CC(F)(F)C[C@H]3C#N)c2c1 [[^61Cu]Cu-NODAGA-F2]", "Target System": "HT-1080.hFAP and HT-1080.wt xenografts", "Number": 1.1}

* * *

Protocol: in vivo
Condition Summary: athymic nude Foxn1, mouse, iv, 20 umol, total radioactivity, Biodistribution Bone

{"Molecule": "C[C@@H](O)[C@@H]1NC(=O)[C@H](CCCCN)NC(=O)[C@@H](Cc2ccc(NC(N)=O)cc2)NC(=O)[C@H](Cc2ccc(O)cc2)NC(=O)[C@H](NC(=O)[C@H](Cc2ccc(Cl)cc2)NC(=O)CCC(C(=O)O)N2CCN(CC(=O)O)CCN(CC(=O)O)CC2)CSSC[C@@H](C(=O)N[C@H](Cc2ccc(O)cc2)C(N)=O)NC1=O (some centres unmarked) [[^61Cu]Cu-NODAGA-LM3, metal not drawn]", "Result Unit": "%ID/g", "tissue uptake at 4 h": 0.31}
{"Molecule": "C[C@@H](O)[C@@H]1NC(=O)[C@H](CCCCN)NC(=O)[C@@H](Cc2ccc(NC(N)=O)cc2)NC(=O)[C@H](Cc2ccc(O)cc2)NC(=O)[C@H](NC(=O)[C@H](Cc2ccc(Cl)cc2)NC(=O)CC[C@H](C(=O)O)N2CCN(CC(=O)O)CCN(CC(=O)O)CC2)CSSC[C@@H](C(=O)N[C@H](Cc2ccc(O)cc2)C(N)=O)NC1=O [[^61Cu]Cu-(R)-NODAGA-LM3, metal not drawn]", "Result Unit": "%ID/g", "tissue uptake at 4 h": 0.42}

* * *

Protocol: in vivo
Condition Summary: athymic nude Foxn1+Foxn1+, mouse, iv, 20 umol, total radioactivity, Biodistribution Liver

{"Compound": "C[C@@H](O)[C@@H]1NC(=O)[C@H](CCCCN)NC(=O)[C@@H](Cc2ccc(NC(N)=O)cc2)NC(=O)[C@H](Cc2ccc(O)cc2)NC(=O)[C@H](NC(=O)[C@H](Cc2ccc(Cl)cc2)NC(=O)CC[C@H](C(=O)O)N2CCN(CC(=O)O)CCN(CC(=O)O)CC2)CSSC[C@@H](C(=O)N[C@H](Cc2ccc(O)cc2)C(N)=O)NC1=O [[^61Cu]Cu-(R)-NODAGA-LM3, metal not drawn]", "tissue uptake at 4 h (%ID/g)": 0.73}
{"Compound": "C[C@@H](O)[C@@H]1NC(=O)[C@H](CCCCN)NC(=O)[C@@H](Cc2ccc(NC(N)=O)cc2)NC(=O)[C@H](Cc2ccc(O)cc2)NC(=O)[C@H](NC(=O)[C@H](Cc2ccc(Cl)cc2)NC(=O)CCC(C(=O)O)N2CCN(CC(=O)O)CCN(CC(=O)O)CC2)CSSC[C@@H](C(=O)N[C@H](Cc2ccc(O)cc2)C(N)=O)NC1=O (some centres unmarked) [[^61Cu]Cu-NODAGA-LM3, metal not drawn]", "tissue uptake at 4 h (%ID/g)": 0.44}

* * *

Protocol: Pharmacokinetics (biodistribution 1-24 h) in non-tumor bearing mice
Type: in vivo
Condition Summary: female, BALB/c, mouse, intestine, 200 umol, total radioactivity; 1 hour after injection, ^61Cu; read-out: Biodistribution Intestine
Value Kind: tissue uptake at 1 h (%ID/g)

{"Molecule": "C[C@@H](O)[C@@H]1NC(=O)[C@H](CCCCN)NC(=O)[C@@H](Cc2c[nH]c3ccccc23)NC(=O)[C@H](Cc2ccc(O)cc2)NC(=O)[C@@H](NC(=O)[C@@H](Cc2ccccc2)NC(=O)CCC(C(=O)O)N2CCN(CC(=O)O)CCN(CC(=O)O)CC2)CSSC[C@@H](C(=O)N[C@H](CO)[C@@H](C)O)NC1=O (single isomer, unassigned) [[^61/^64Cu]Cu-NODAGA-TOC, metal not drawn]", "Number": 0.96}

* * *

Quick reference for tissue uptake at 4 h among some compounds
Protocol: in vivo
Condition Summary: athymic nude Foxn1+Foxn1+, mouse, iv, 20 umol, total radioactivity, Biodistribution Intestine

{"Compound": "C[C@@H](O)[C@@H]1NC(=O)[C@H](CCCCN)NC(=O)[C@@H](Cc2ccc(NC(N)=O)cc2)NC(=O)[C@H](Cc2ccc(O)cc2)NC(=O)[C@H](NC(=O)[C@H](Cc2ccc(Cl)cc2)NC(=O)CC[C@H](C(=O)O)N2CCN(CC(=O)O)CCN(CC(=O)O)CC2)CSSC[C@@H](C(=O)N[C@H](Cc2ccc(O)cc2)C(N)=O)NC1=O [[^61Cu]Cu-(R)-NODAGA-LM3, metal not drawn]", "tissue uptake at 4 h, %ID/g": 0.58}
{"Compound": "C[C@@H](O)[C@@H]1NC(=O)[C@H](CCCCN)NC(=O)[C@@H](Cc2ccc(NC(N)=O)cc2)NC(=O)[C@H](Cc2ccc(O)cc2)NC(=O)[C@H](NC(=O)[C@H](Cc2ccc(Cl)cc2)NC(=O)CCC(C(=O)O)N2CCN(CC(=O)O)CCN(CC(=O)O)CC2)CSSC[C@@H](C(=O)N[C@H](Cc2ccc(O)cc2)C(N)=O)NC1=O (some centres unmarked) [[^61Cu]Cu-NODAGA-LM3, metal not drawn]", "tissue uptake at 4 h, %ID/g": 0.43}

* * *

Test system: HT-1080.hFAP and HT-1080.wt xenografts
Protocol: Quantitative biodistribution in HT-1080.hFAP and HT-1080.wt xenografted mice
Format: in vivo
Condition Summary: 4 h p.i., HT-1080.hFAP and HT-1080.wt xenografts

{"Molecule": "N#C[C@@H]1CC(F)(F)CN1C(=O)CNC(=O)c1ccnc2ccc(NC(=O)CCC(=O)NCCNC(=O)CC[C@H](C(=O)O)N3CCN4CCN(CC3)CC(=O)[O][61Cu][O]C(=O)C4)cc12 [[^61Cu]Cu-NODAGA-F1]", "Result Unit": "% IA/g", "Biodistribution Stomach": 0.7}
{"Molecule": "CN(C(=O)CCC(=O)NCCNC(=O)CC[C@H](C(=O)O)N1CCN2CCN(CC1)CC(=O)[O][61Cu][O]C(=O)C2)c1ccc2nccc(C(=O)NCC(=O)N3CC(F)(F)C[C@H]3C#N)c2c1 [[^61Cu]Cu-NODAGA-F2]", "Result Unit": "% IA/g", "Biodistribution Stomach": 0.3}
{"Molecule": "CN(CCCN1CCN(C(=O)CCC(C(=O)O)N2CCN3CCN(CC2)CC(=O)[O][61Cu][O]C(=O)C3)CC1)c1ccc2nccc(C(=O)NCC(=O)N3CC(F)(F)C[C@H]3C#N)c2c1 (stereo partly drawn) [[^61Cu]Cu-NODAGA-FAPI-46]", "Result Unit": "% IA/g", "Biodistribution Stomach": 0.6}
